# test-system: CLK1 (Homo sapiens)
# Sequence (P49759 whole entry): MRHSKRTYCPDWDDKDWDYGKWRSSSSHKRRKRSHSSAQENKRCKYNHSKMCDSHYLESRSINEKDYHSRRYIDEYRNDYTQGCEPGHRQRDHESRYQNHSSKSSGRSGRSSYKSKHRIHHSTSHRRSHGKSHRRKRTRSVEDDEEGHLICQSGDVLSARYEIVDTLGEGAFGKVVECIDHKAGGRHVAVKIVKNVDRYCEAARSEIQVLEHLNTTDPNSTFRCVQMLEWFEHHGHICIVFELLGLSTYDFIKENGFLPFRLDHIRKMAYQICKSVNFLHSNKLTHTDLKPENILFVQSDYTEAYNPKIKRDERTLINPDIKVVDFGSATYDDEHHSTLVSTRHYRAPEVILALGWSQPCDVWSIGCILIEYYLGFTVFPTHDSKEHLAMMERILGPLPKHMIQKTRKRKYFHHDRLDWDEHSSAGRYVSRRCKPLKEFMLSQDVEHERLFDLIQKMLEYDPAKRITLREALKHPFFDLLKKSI
measurement-kind: IC50

structure_as_smiles=CC(C)(C)C(=O)Nc1cncc(-c2ccc3[nH]nc(-c4nc(=O)c5ccccc5[nH]4)c3c2)c1 measurement_kind=IC50 result="10 to 50 nM"
structure_as_smiles=O=C(Nc1cncc(-c2ccc3[nH]nc(-c4nc(=O)c5ccccc5[nH]4)c3c2)c1)C1CCCC1 measurement_kind=IC50 result="< 10 nM"
structure_as_smiles=O=C(CC1CC1)Nc1cncc(-c2ccc3[nH]nc(-c4nc(=O)c5ccccc5[nH]4)c3c2)c1 measurement_kind=IC50 result="< 10 nM"
structure_as_smiles=CC(C)CC(=O)Nc1cncc(-c2ccc3[nH]nc(-c4nc(=O)c5ccccc5[nH]4)c3c2)c1 measurement_kind=IC50 result="< 10 nM"
structure_as_smiles=O=c1nc(-c2n[nH]c3ccc(-c4cncc(CN5CCC(F)(F)C5)c4)cc23)[nH]c2ccccc12 measurement_kind=IC50 result="< 10 nM"
structure_as_smiles=CC(C)C[C@H](N)COc1cncc(-c2ccc3[nH]nc(-c4nc(=O)c5ccncc5[nH]4)c3c2)c1 measurement_kind=IC50 result="< 10 nM"
structure_as_smiles=O=c1nc(-c2n[nH]c3ccc(-c4cncc(NCC5CCCCC5)c4)cc23)[nH]c2ccccc12 measurement_kind=IC50 result="10 to 50 nM"
structure_as_smiles=CC(C)CC(=O)Nc1cncc(-c2ccc3[nH]nc(-c4ccc5ocnc5c4)c3c2)c1 measurement_kind=IC50 result="10 to 50 nM"

----------
# test-system: UniProtKB Q13627
# assay-remarks: In vitro kinase inhibition, ADP-Glo enzyme activity assay
# Assay type: biochemical
# condition-label: read-out: Enzymatic activity (IC50) DYRK1A
pIC50: −log10 of the molar value.
# key: entry, value: pIC50
measurement-kind: pIC50

structure_as_smiles=CC(C)C[C@H](N)COc1cncc(-c2ccc3[nH]nc(-c4nc(=O)c5ccccc5[nH]4)c3c2)c1 test_system="UniProtKB Q13627" result="> 8.00"
structure_as_smiles=O=C(Nc1cncc(-c2ccc3[nH]nc(-c4nc(=O)c5ccccc5[nH]4)c3c2)c1)C1CC(F)(F)C1 test_system="UniProtKB Q13627" result="7.30 to 8.00"
structure_as_smiles=CC(C)CC(=O)Nc1cncc(-c2ccc3[nH]nc(-c4cccnc4)c3c2)c1 test_system="UniProtKB Q13627" result="7.30 to 8.00"
structure_as_smiles=O=c1nc(-c2n[nH]c3ccc(-c4cncc(O)c4)cc23)[nH]c2ccccc12 test_system="UniProtKB Q13627" result="> 8.00"
structure_as_smiles=CC(C)(C)C(=O)Nc1cncc(-c2ccc3[nH]nc(-c4nc(=O)c5ccccc5[nH]4)c3c2)c1 test_system="UniProtKB Q13627" result="> 8.00"
structure_as_smiles=CC(C)CC(=O)Nc1cncc(-c2ccc3[nH]nc(-c4ccncc4)c3c2)c1 test_system="UniProtKB Q13627" result="> 8.00"
structure_as_smiles=O=C(Nc1cncc(-c2ccc3[nH]nc(-c4nc(=O)c5ccccc5[nH]4)c3c2)c1)C1CCCC1 test_system="UniProtKB Q13627" result="7.30 to 8.00"
structure_as_smiles=CC(C)CC(=O)Nc1cncc(-c2ccc3[nH]nc(-c4nc(=O)c5ccccc5[nH]4)c3c2)c1 test_system="UniProtKB Q13627" result="7.30 to 8.00"
